Conditions: acidic group
Decide by pKa: equal to or exceeding 9 means Met, less means Not met.

Compound: O=c1[nH]c2ccccc2c(=O)o1
Class label: Not met
--
Compound: CN(C)c1cccc2c(S(=O)(=O)NCC(=O)[O-])cccc12
Class label: Met
--
Compound: C#CC(=O)O
Class label: Not met
--
Compound: OC(CBr)(Oc1ccccc1)c1ccccc1 (stereo unspecified)
Class label: Met
--
Compound: Cc1c(I)cccc1C(=O)O
Class label: Not met
--
Compound: COC(=O)CC(=N/[O-])/C(C)=N/O
Class label: Met
--
Compound: O=[N+]([O-])c1cccc(NS(=O)(=O)c2ccccc2)c1
Class label: Not met
--
Compound: Cc1cc(C)c(C(C(=O)O)c2ccccc2)c(C)c1 (stereo unspecified)
Class label: Not met
--
Compound: O=[N+]([O-])CCO
Class label: Met
--
Compound: C/C(=C\Cl)C(=O)O
Class label: Not met
--
Compound: c1ccc(CSc2ncn[nH]2)cc1
Class label: Met
--
Compound: CC(=O)C[N+](=O)[O-]
Class label: Not met
--
Compound: O=C([O-])[C@H](NCC[NH2+][C@@H](C(=O)[O-])c1ccccc1[O-])c1ccccc1O
Class label: Met
--
Compound: O=C([O-])CNS(=O)(=O)c1ccccc1
Class label: Met
--
Compound: CCC(Oc1ccccc1C)C(=O)O (stereo unspecified)
Class label: Not met
--
Compound: O=Cc1cc(Cl)ccc1O
Class label: Not met
--
Compound: CC(=O)NS(=O)(=O)c1ccccc1C(=O)O
Class label: Not met
--
Compound: O=C(O)C(=O)C(c1ccccc1)c1ccccc1
Class label: Not met
--
Compound: O=C(O)[C@H]1C[C@@H]1c1ccc([N+](=O)[O-])cc1
Class label: Not met
--
Compound: Nc1ccc(C(=O)O)cc1
Class label: Not met
--
Compound: Cc1ccc([N+](C)(C)C)cc1O
Class label: Not met
--
Compound: c1c[nH]cn1
Class label: Met
--
Compound: C[n+]1ccncc1O
Class label: Not met
--
Compound: C[NH2+]CCCNC(=O)/C=N/O
Class label: Not met
--
Compound: Nc1ncnc2nc[nH]c12
Class label: Met
--
Compound: C[n+]1ccccc1/C=C/c1ccc(O)cc1
Class label: Not met
--
Compound: Cn1cccc1C(=O)O
Class label: Not met
--
Compound: CC(C)CCOc1ccccc1/C=C/C(=O)O
Class label: Not met
--
Compound: O=C(O)c1ccc(Br)s1
Class label: Not met

====

Conditions: basic group

Compound: C1CCC2(CC1)N1CCCN12 (stereo not drawn)
pKa: 5.19
--
Compound: OCCNC1CCN(Cc2ccccc2)CC1
pKa: 9.24
--
Compound: CCN(c1ccccc1)C(C)(C)C
pKa: 8.02
--
Compound: CCNNCC
pKa: 7.66
--
Compound: [O-]c1ncnc2cccnc12
pKa: 8.95
--
Compound: C[n+]1c(N)ccnc1[O-]
pKa: 7.38
--
Compound: O=C(c1ccccc1)N(O)c1ccccc1
pKa: -2.08
--
Compound: CC[C@H](C)[C@H](N)C(=O)[O-]
pKa: 9.77

====

Conditions: basic group

Molecule: CCN(CC)CC(=O)Nc1c(C)cc(C)cc1C
pKa: 7.9
//
Molecule: OCc1ccncc1
pKa: 5.41
//
Molecule: CCc1cc(/N=N/c2ccc(N(C)C)cc2)ccc1C
pKa: 2.59
//
Molecule: Brc1cccnc1
pKa: 2.94
//
Molecule: Cc1cccc(CCCCCCCC(=O)[O-])n1
pKa: 7
//
Molecule: NC1=N[C@@H](CC(=O)[O-])C(=O)N1CCCC(N)C(=O)[O-] (some centres undefined)
pKa: 9.55
//
Molecule: COc1ccc2c3c1O[C@H]1[C@@H](O)CC[C@H]4[C@@H](C2)N(C)CC[C@@]341
pKa: 8.71
//
Molecule: Cn1cnc2cnc([O-])nc21
pKa: 9.19
//
Molecule: COc1ccc2c3c1O[C@H]1CCC[C@H]4[C@H](NCC[C@]314)[C@@H]2O
pKa: 9.17
//
Molecule: CC(=O)n1ccnc1C
pKa: 5.03
//
Molecule: c1ccc(-c2ncc[nH]2)nc1
pKa: 5.46
//
Molecule: C=CCc1ccc2cccnc2c1O
pKa: 4.52
//
Molecule: [NH3+]CCCc1ccncc1
pKa: 5.51
//
Molecule: Nc1ncnc2c1cnn2-c1ccccc1
pKa: 3.89
